src = PubChem BioAssay (NCI)

System: RPMI-8226 leukemia
test-protocol: NCI-60 one-dose screen, 48 h
assay-conditions: 10 µM unless noted
About 83,000 compounds went through this panel and 20% of them were active in at least one assay; those are over-represented in the sample as a whole. Calls of active or inactive are those of the source. How the source made its calls: active means growth percent below 10; inactive means the rest.
Your answer must be one of the following: 1 (yes) = active, 0 (no) = inactive

These recorded examples may help you get a feel for the data.
- compound: "COc1ccc(-c2cc(-c3cc(OC)ccc3OC)[nH]c(=O)c2C#N)cc1"
  class-label: "0 (no)"
- compound: "C=CCN1C(=O)[C@]2(SC1=S)[C@H](c1cccc(Cl)c1)CN(C)[C@]21C(=O)NC2C=CC(Cl)=C[C@H]21 (some centres undefined)"
  class-label: "1 (yes)"
- compound: "Cc1cc2c(F)c(Oc3ncnc(Nc4ccc(N5C[C@@H](C)N[C@@H](C)C5)cc4)c3C#N)cc(F)c2[nH]1"
  class-label: "1 (yes)"

Req: In this assay, the call recorded for "COc1ccc(-c2cc(-c3ccc(Nc4nc(Nc5ccccc5)nc(Nc5ccc(Cl)cc5)n4)cc3)nc(N)n2)cc1" was what?
Resp: 0 (no)

* * *

System: HS 578T breast
test-protocol: NCI-60 one-dose screen, 48 h (100 = growth as untreated, 0 = no growth, -100 = all killed)
assay-conditions: 10 µM unless noted
The panel holds about 83,000 compounds, 20% with a hit somewhere; the sample as a whole holds those more often. Active and inactive are the calls of the source. The calls were made as follows: active = growth percent below 10; inactive = the rest.
result-type: growth

Recorded growth, per entry:
- compound: "C=CC(=O)N[C@@H](Cc1ccc(-c2cc(Cl)cc(Cl)c2)cc1)[C@@H](O)[C@H](O)C(=O)O"
  result-type: "growth"
  assay-value: "92.9% (inactive)"
- compound: "CCNCCNc1cc(C2CCCC2)c(C#N)c2nc3ccccc3n12"
  result-type: "growth"
  assay-value: "-6.97% (active)"
- compound: "N#Cc1c(NC(=O)c2cccc(C(F)(F)F)c2)sc2c1CCC(=O)C2"
  result-type: "growth"
  assay-value: "1.32% (active)"
- compound: "Clc1ccc(-c2nnc(Cn3ccnc3)o2)cc1"
  result-type: "growth"
  assay-value: "95.1% (inactive)"
- compound: "Cc1nc2ccc(C(=O)NCc3cc(C(=O)O)c(C)o3)cc2nc1C"
  result-type: "growth"
  assay-value: "96.8% (inactive)"
- compound: "COc1cc(NC(=O)c2cccc(-c3cc(=O)c4c(OC)c(OC)c(OC)cc4o3)c2)cc(OC)c1OC"
  result-type: "growth"
  assay-value: "9.2% (active)"
- compound: "CCOC(=O)Cc1csc2nc(-c3ccccc3)nn12"
  result-type: "growth"
  assay-value: "103% (inactive)"
- compound: "CCn1c(Sc2nnc(Nc3ccccc3)s2)nc2c1c(=O)n(C)c(=O)n2C"
  result-type: "growth"
  assay-value: "99.3% (inactive)"
- compound: "C=C(C)[C@@H]1CC[C@]2(CNCCO)CC[C@]3(C)[C@H](CC[C@@H]4[C@@]5(C)CCC(N)[C@@](C)(CO)[C@@H]5CC[C@]43C)[C@@H]12 (some centres undefined)"
  result-type: "growth"
  assay-value: "60.9% (inactive)"
- compound: "C=C(CNCCc1ccc(O)cc1)[C@@H]1CC[C@]2(COC3CCCCO3)CC[C@]3(C)[C@H](CC[C@@H]4[C@@]5(C)CCC(N)C(C)(C)[C@@H]5CC[C@]43C)[C@@H]12 (some centres undefined)"
  result-type: "growth"
  assay-value: "-49.5% (active)"

The following compounds each have a reported value; give each one's growth.
1. O=C(CC1Sc2ccccc2NC1=O)NNc1ccc(F)cc1 (centres undefined)
2. CN(C)CCN1C(=O)c2cccc3c(-c4ccc(-c5nc6c7ccccc7c7ccccc7c6[nH]5)cc4)ccc(c23)C1=O
3. O=C(/C=C/C12c3ccccc3C(c3ccccc31)C1C(=O)N(c3ccc(Cl)cc3)C(=O)C12)c1ccccn1 (centres undefined)
4. NS(=O)(=O)Oc1ccc(NC(=O)C23CC4CC(CC(C4)C2)C3)cc1Cl
5. O=C(O)C1C[C@](O)(c2ccc(F)cc2)[C@@H](c2ccc(F)cc2)O1 (some centres undefined)
6. CCOC(=O)c1sc(-c2ccc(OS(=O)(=O)c3ccc(C(C)(C)C)cc3)c(C=O)c2)nc1C
7. COc1ccc2c(c1)/C(=C\c1sc(=S)[nH]c1O)C(C(=O)O)=N2

Resp:
["82.4% (inactive)", "117% (inactive)", "13.9% (inactive)", "95.5% (inactive)", "124% (inactive)", "52.9% (inactive)", "94% (inactive)"]

Field: growth. Fill in for each record below.
1. CCOC(=O)c1c(C)[nH]c(C(=O)CCC(=O)OC)c1C
2. CS(=O)(=O)c1ccc(-c2nc3cc(Cl)ccc3n2CC(=O)NO)cc1

Resp:
124% (inactive)
93.2% (inactive)

* * *

Test system: NCI-H522 lung
test-protocol: NCI-60 one-dose screen, 48 h (100 = growth as untreated, 0 = no growth, -100 = all killed)
assay-conditions: 10 µM unless noted
The panel holds about 83,000 compounds, 20% with a hit somewhere; the sample as a whole holds those more often.
Would you kindly list growth for each of these molecules?
Give bare numbers, in %.

Sample records with growth:
- structure-notation: "COc1ccc(O)c(-c2cc(-c3ccccc3)c(C#N)c(=O)[nH]2)c1"
  result-type: "growth"
  assay-value: 65.6
- structure-notation: "C[C@@H]1CC[C@@H]2[C@@H]1[C@H](OC(=O)c1ccc3ccccc3c1)[C@]1(C3CCCCC3)C[C@@H](OC(=O)CO)[C@@]2(C)O1"
  result-type: "growth"
  assay-value: 49.4
- structure-notation: "Cc1ccc(S(=O)(=O)N(CC[C@@H]2C[C@H]2c2cc3ccccc3o2)C(=O)NC2CCCCC2)cc1"
  result-type: "growth"
  assay-value: 86
- structure-notation: "COc1ccc(-c2cc(-c3cc(OC)ccc3OC)[nH]c(=O)c2C#N)cc1"
  result-type: "growth"
  assay-value: 16.7

Consider the record given below.
The molecule listed as "N=C(N)c1ccc(-c2ccc(-c3ccc(Cl)cc3Cl)o2)nc1" shows growth equal to 30

* * *

System: HCT-116 colon
test-protocol: NCI-60 one-dose screen, 48 h (100 = growth as untreated, 0 = no growth, -100 = all killed)
assay-conditions: 10 µM unless noted
Compounds without any hit were thinned out: in the full panel of roughly 83,000, 20% have a hit. Calls of active or inactive are those of the source. The calls were made as follows: active = growth percent below 10; inactive = the rest.
result-type: growth

- compound: "Cc1nc(-c2ccccc2)cc2c(O)c(C(=O)N/N=C/c3ccc(N(C)C)cc3)[nH]c(=O)c12"
  assay-value: "57.6% (inactive)"

# batch: return growth for each of the 6 compounds below
1. CCn1c(Sc2nnc(NC(=O)CSC(=S)N3CCCCC3)s2)nc2c1c(=O)n(C)c(=O)n2C
2. CC(=O)Nc1ccc(-c2cc3c(NCc4ccc(F)cc4)ncnc3s2)cc1
3. O=C1Nc2ccccc2/C1=N/N=C/c1c[nH]c2ccccc12
4. C[C@]12CCC(=O)C[C@H]1CC[C@@H]1[C@@H]2CC[C@@]2(C)[C@H]1CC[C@]2(O)C(=O)CO
5. COc1ccc(-c2nc3ncccn3c2/C=C/C(=O)c2cc(OC)c(OC)c(OC)c2)cc1
6. CC(C)n1nc(C#Cc2cccc(NC(=O)c3cccc(C(F)(F)F)c3)c2)c2c(N)ncnc21

Resp:
1: 87.7% (inactive); 2: 80.7% (inactive); 3: 72.4% (inactive); 4: 110% (inactive); 5: -84.8% (active); 6: -50.6% (active)

# per-item lookup of growth; items listed below
1. C=CCN1C(=O)[C@]2(SC1=S)[C@H](c1cccc(Cl)c1)CN(C)[C@]21C(=O)NC2C=CC(Cl)=C[C@H]21 (some centres undefined)
2. CCn1c(Sc2nnc(NC(=O)CCN3CCCC3)s2)nc2c1c(=O)n(C)c(=O)n2C
3. O=C1NCC(=O)N(Cc2ccco2)[C@H]1Cc1ccccc1
4. Cc1[nH]c(-c2nc3ccccc3[nH]2)c(C)c1C(=O)N1CCc2sccc2C1
5. NC(=O)c1c(NC(=O)c2ccc(C(F)(F)F)cc2Cl)sc2c1CCC(=O)C2
6. c1ccc(-c2oc3ccccc3c2-c2ccccc2)cc1
7. O=C(O)CC1Sc2ccccc2NC1=O (centres undefined)

Resp:
33.4% (inactive)
105% (inactive)
95.9% (inactive)
92.6% (inactive)
-56.9% (active)
98.5% (inactive)
100% (inactive)

Could you tell me growth for each of these compounds? They are listed below.
1. COc1cc2nc(Nc3ccc(F)cc3)nc(N)c2cc1OC
2. Cc1cc(NS(=O)(=O)c2ccccc2)c(OS(=O)(=O)c2ccccc2)cc1C
3. O=C(Nc1ccccc1Cl)OCCN1CCOCC1
4. COc1ccc(/C(C)=N/NS(=O)(=O)c2ccc(C)cc2)cc1OC
5. Cc1ccc(-n2nnc(C3=NCCc4c3[nH]c3ccc(Cl)cc43)c2C)cc1
6. CC(C)(C)OC(=O)N1Cc2cc3ccccc3nc2C1CO (centres undefined)

Resp:
89.4% (inactive)
96.1% (inactive)
73.8% (inactive)
95.1% (inactive)
71.6% (inactive)
98.4% (inactive)

For each of the items listed, what is its growth?
1. COc1ccc2cc(-c3ccc(C(=O)NN)c(C)n3)ccc2c1
2. COC(=O)CNC(=O)C(=O)c1c(O)c(O)c(C(C)C)c2cc(C)c(-c3c(C)cc4c(C(C)C)c(O)c(O)c(C(=O)C(=O)NCC(=O)OC)c4c3O)c(O)c12
3. CN(C)c1ccc2cc(-c3ccc(Cl)c(Cl)c3)c(N)nc2c1
4. C=C(C)[C@@H]1CC[C@]2(CN)CC[C@]3(C)[C@H](CC[C@@H]4[C@@]5(C)CCC(N)[C@@](C)(CO)[C@@H]5CC[C@]43C)[C@@H]12 (some centres undefined)
5. CC(=O)c1cc2c(o1)C(=O)c1ccccc1C2=O

Resp:
93.7% (inactive)
11% (inactive)
13.3% (inactive)
-85.5% (active)
-83.6% (active)
